Test system: 624824-186-R-J3-PDC multicell spheroids, viability
assay procedure: Anticancer human tumor 624824-186-R-J3-PDC patient-derived colon adenocarcinoma cell line growth inhibition [PI3K]
assay setup: curve of first compound; second compound 0.1 µM
experimental readout: IC50

Q: Need IC50, item CC1(C)CCC(Nc2ncc(C(F)(F)F)c(-c3c[nH]c4c(P(C)(C)=O)c(C#N)ccc34)n2)CN1 (centres undefined) + COc1c(OCCCN2CCOCC2)ccc2c3n(c(=NC(=O)c4cnc(N)nc4)nc12)CCN3
Ans: < 0.0316 µM

Q: Request the reported IC50 associated with C[C@@H](NC(=O)c1ncnc(N)c1Cl)c1ncc(C(=O)Nc2cc(C(F)(F)F)c(Cl)cn2)s1 + CC(Nc1ncnc2nc[nH]c12)c1cc2cccc(Cl)c2c(=O)n1-c1ccccc1
Ans: > 10 µM

Q: For the molecule shown here, C=CC(=O)N1CCN(c2nc(=O)n(-c3c(C)ccnc3C(C)C)c3nc(-c4c(O)cccc4F)c(F)cc23)C(C)C1 (centres undefined) + CC(Nc1ncnc2nc[nH]c12)c1cc2cccc(Cl)c2c(=O)n1-c1ccccc1 , give the reported IC50.
Ans: > 10 µM

Next:
Q: Using the record for Cn1ncnc1[C@H]1c2n[nH]c(=O)c3cc(F)cc(c23)N[C@@H]1c1ccc(F)cc1 + CC(Nc1ccc2c(c1)OCCn1cc(N3C(=O)OCC3C(F)F)nc1-2)C(N)=O , report its IC50.
Ans: > 0.1 µM

---

Tested on: 624824-186-R-J3-PDC multicell spheroids, viability
assay procedure: Anticancer human tumor 624824-186-R-J3-PDC cell line growth inhibition [PI3K];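 also: spheroids exposed to agents for seven days before luminescence read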;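 as to viability, T/C: luminescent signal used as a stand-in for spheroid viability; percent viability relative to DMSO vehicle control wells taken as 100%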
assay setup: second compound 0.1 µM; first compound 0.1 µM; stronger effect = lower value
Give viability, T/C for every item shown.

List reported viability, T/C for each of these molecules:
1. CCN1CCN(Cc2ccc(Nc3ncc(F)c(-c4cc(F)c5nc(C)n(C(C)C)c5c4)n3)nc2)CC1 + Cc1nc(NC(=O)N2CCCC2C(N)=O)sc1-c1ccnc(C(C)(C)C(F)(F)F)c1
2. CC(Cn1ccc(-c2ccc(C#N)c(Cl)c2)n1)NC(=O)c1cc(C(C)O)[nH]n1 (stereo not drawn) + CC(Nc1ccc2c(c1)OCCn1cc(N3C(=O)OCC3C(F)F)nc1-2)C(N)=O
3. CC(Cn1ccc(-c2ccc(C#N)c(Cl)c2)n1)NC(=O)c1cc(C(C)O)[nH]n1 (stereo not drawn) + Cc1nc(NC(=O)N2CCCC2C(N)=O)sc1-c1ccnc(C(C)(C)C(F)(F)F)c1

Ans:
107%
97.5%
105%

---

Tested on: 624824-186-R-J3-PDC multicell spheroids, viability
assay procedure: Anticancer human tumor 624824-186-R-J3-PDC cell line growth inhibition [PI3K];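 also: spheroids exposed to agents for seven days before luminescence read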
assay setup: curve of first compound; second compound 10 µM
pIC50: −log10 of the molar value.
Please respond with reported pIC50 for every item in the list.

Consider the reported pIC50 for these compounds:
Q: Data request, read-out pIC50, for CC(Cn1ccc(-c2ccc(C#N)c(Cl)c2)n1)NC(=O)c1cc(C(C)O)[nH]n1 (stereo not given) + CC(Nc1ncnc2nc[nH]c12)c1cc2cccc(Cl)c2c(=O)n1-c1ccccc1
Ans: < 5.00

Q: Entry C=CC(=O)N1CCN(c2nc(=O)n(-c3c(C)ccnc3C(C)C)c3nc(-c4c(O)cccc4F)c(F)cc23)C(C)C1 (stereo not given) + CC(Nc1ncnc2nc[nH]c12)c1cc2cccc(Cl)c2c(=O)n1-c1ccccc1 : reported pIC50 = ?
Ans: < 5.00

Q: Look up pIC50 for this compound: C#Cc1c(F)ccc2cc(O)cc(-c3ncc4c(N5CC6CCC(C5)N6)nc(OCC56CCCN5CC(F)C6)nc4c3F)c12 (stereo not given) + Cc1nc(NC(=O)N2CCCC2C(N)=O)sc1-c1ccnc(C(C)(C)C(F)(F)F)c1
Ans: < 5.00

Q: Consider the compound C[C@@H](NC(=O)c1ncnc(N)c1Cl)c1ncc(C(=O)Nc2cc(C(F)(F)F)c(Cl)cn2)s1 + CC(Nc1ncnc2nc[nH]c12)c1cc2cccc(Cl)c2c(=O)n1-c1ccccc1 and give its measured pIC50.
Ans: < 5.00

Q: Sample CC1(C)CCC(Nc2ncc(C(F)(F)F)c(-c3c[nH]c4c(P(C)(C)=O)c(C#N)ccc34)n2)CN1 (stereo not given) + Cc1nc(NC(=O)N2CCCC2C(N)=O)sc1-c1ccnc(C(C)(C)C(F)(F)F)c1 — what was its pIC50?
Ans: > 7.50

Q: Name the reported pIC50 value associated with the compound Cn1ncnc1[C@H]1c2n[nH]c(=O)c3cc(F)cc(c23)N[C@@H]1c1ccc(F)cc1 + CC(Nc1ncnc2nc[nH]c12)c1cc2cccc(Cl)c2c(=O)n1-c1ccccc1
Ans: < 7.00

Hi team, please reply with pIC50 for each item in this list.
1. CNC(=O)c1ccc(N2C(=S)N(c3ccc(C#N)c(C(F)(F)F)c3)C(=O)C2(C)C)cc1F + CC(Nc1ncnc2nc[nH]c12)c1cc2cccc(Cl)c2c(=O)n1-c1ccccc1
2. CC(Cn1ccc(-c2ccc(C#N)c(Cl)c2)n1)NC(=O)c1cc(C(C)O)[nH]n1 (stereo not given) + Cc1nc(NC(=O)N2CCCC2C(N)=O)sc1-c1ccnc(C(C)(C)C(F)(F)F)c1
3. CC(=O)c1c(C)c2cnc(Nc3ccc(N4CCNCC4)cn3)nc2n(C2CCCC2)c1=O + CC(Nc1ncnc2nc[nH]c12)c1cc2cccc(Cl)c2c(=O)n1-c1ccccc1
4. C=CC(=O)N1CCN(c2nc(=O)n(-c3c(C)ccnc3C(C)C)c3nc(-c4c(O)cccc4F)c(F)cc23)C(C)C1 (stereo not given) + Cc1nc(NC(=O)N2CCCC2C(N)=O)sc1-c1ccnc(C(C)(C)C(F)(F)F)c1

Ans:
< 5.00
< 5.00
< 7.00
< 5.00
